Consider the following variants and their measured polymerase ribozyme fitness (log ratio) readings.
B1: TPR 5TU (parent)
chain: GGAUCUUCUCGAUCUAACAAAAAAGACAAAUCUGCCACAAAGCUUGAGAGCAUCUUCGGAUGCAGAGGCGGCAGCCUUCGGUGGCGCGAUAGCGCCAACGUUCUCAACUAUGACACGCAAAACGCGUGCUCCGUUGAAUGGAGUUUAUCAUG

variants of: B1; assay: polymerase ribozyme fitness, log enrichment relative to wild type (log ratio); higher = more active; in vitro selection for triplet polymerase activity
Fewer inactive variants are shown than the library holds.

Answered cases to consult:
INSERT INTO results (variant_notation, recorded_value) VALUES
  ('A91G C131A A137C G143C', '≤ -4.2'),
  ('G34A G117U A137C A142U', '≤ -4.2'),
  ('C87U A98C', -1.07),
  ('G34C U78C A91G U146A', '≤ -4.2'),
  ('G86U G88A A150C', '≤ -4.2'),
  ('A120U U145C', -0.0409),
  ('U4G A24U G62U C87U A89U', -3.44),
  ('G48A G92U C123A', -0.538),
  ('A28C C57U G59A U78G G86A A115U', '≤ -4.2'),
  ('G48A G83U A98G G140C', '≤ -4.2');

-- ask Given the variant U55G C79U A91C G124C C129A A137U , what is its reported polymerase ribozyme fitness (log ratio)?
-- reply ≤ -4.2

-- ask Given the variant A20G C27G G65U G81A G88A A138C G143U , what is its reported polymerase ribozyme fitness (log ratio)?
-- reply ≤ -4.2

-- ask Given the variant G50U U55A G71U , what is its reported polymerase ribozyme fitness (log ratio)?
-- reply -3.35

-- ask Given the variant G50C G83U , what is its reported polymerase ribozyme fitness (log ratio)?
-- reply -3.77

-- ask Given the variant A3G C8A U44A A47C U56A G84C C87G , what is its reported polymerase ribozyme fitness (log ratio)?
-- reply ≤ -4.2

-- ask Given the variant U6A C8A A19U A20U C72U U77A U101A , what is its reported polymerase ribozyme fitness (log ratio)?
-- reply ≤ -4.2

The reported measurements were obtained from the RNAGym collection of RNA variant scans (doi:10.1073/pnas.2313332121).
